- Test system: P. aeruginosa
- experimentDescription: Minimal inhibitory concentration (MIC) assay, broth microdilution
- Assay type: cell-based, Pseudomonas aeruginosa
- conditionDetails: Pae 39324; in the presence of PBS
Reported MIC (mg/ml) Pae 39324 values for a set of sequences
Response body: numeric value in mg/mL, unit text excluded.

Use the examples below as a reference point.
residueSequence: GGGKFFRKLKKSVKKRAKEFFKKPRVIGVSIPF [Peptide P297]
measured: 2

residueSequence: GGGGRFKRFRKKFKKLFKKLSPVIPLLHLG [Peptide P295]
measured: 4

residueSequence: GGGKRFKKFFKKLKNSVKKRAKKFFKKPRVIGVSIPF [Peptide P296]
measured: 2

sequence GGGGLRRLGRKIAHGIKKYGPTILRIIRIAG [Peptide P293] , MIC (mg/ml) Pae 39324 observed: 2
